This listing pairs molecules with measured activity coefficient.
assay: activity coefficient (dimensionless); of the first substance listed, at infinite dilution; xn = mol fraction of the nth substance listed; conditions: 323.15 K; 101 kPa; Liquid; Chromatography; x1 = 0
Number, no unit, nothing else.

Use these answered entries as a reference point.
>  <molecule>
Cc1ccccc1 [toluene] + CCCCCCCCCCCC[n+]1ccn(CCCB(O)O)c1.[Br-]

>  <activity coefficient>
3.36

$$$$
>  <molecule>
ClC(Cl)(Cl)Cl [tetrachloromethane] + CCCCCCCCCCCC[n+]1ccn(CCCB(O)O)c1.[Br-]

>  <activity coefficient>
0.9

$$$$
>  <molecule>
Cc1ccccc1C [1,2-dimethylbenzene] + CCCCCCCCCCCC[n+]1ccn(CCCB(O)O)c1.[Br-]

>  <activity coefficient>
1.78

$$$$
>  <molecule>
Cc1ccccc1C [1,2-dimethylbenzene] + CCCCCCCCCC[n+]1ccn(CCCB(O)O)c1.[Br-]

>  <activity coefficient>
1.89

$$$$
>  <molecule>
Cc1ccccc1 [toluene] + C=CC[n+]1ccn(CCCCCCCCCC)c1.[Br-]

>  <activity coefficient>
1.85

$$$$

Now turn to the next molecule.
Return reported activity coefficient; argument: CCC[N+](=O)[O-] [1-nitropropane] + CCCCCCCCCC[n+]1ccn(CCCB(O)O)c1.[Br-] 1.19

###

assay: activity coefficient (dimensionless); of the first substance listed, at infinite dilution; xn = mol fraction of the nth substance listed; details: 323.15 K; 101 kPa; Liquid; Chromatography; x1 = 0
This listing pairs molecules with measured activity coefficient.
Number, no unit, nothing else.

>  <molecule>
CC(C)O [propan-2-ol] + C=CC[n+]1ccn(CCCCCCCCCCCC)c1.[Br-]

>  <activity coefficient>
0.29

$$$$
>  <molecule>
CCC[N+](=O)[O-] [1-nitropropane] + C=CC[n+]1ccn(CCCCCCCC)c1.[Br-]

>  <activity coefficient>
1.23

$$$$
>  <molecule>
C#CCCCC [1-hexyne] + CCCCCCCC[n+]1ccn(CCCB(O)O)c1.[Br-]

>  <activity coefficient>
2.77

$$$$

Return reported activity coefficient; argument: CCCCCCCCC [nonane] + C=CCn1cc[n+](C)c1.[Br-] 65.6

###

experiment: activity coefficient (dimensionless); of the first substance listed, at infinite dilution; xn = mol fraction of the nth substance listed; conditions: 323.15 K; 101 kPa; Liquid; Chromatography; x1 = 0
reportedMetric: activity coefficient
Number, no unit, nothing else.

Use these answered entries as a reference point.
>  <compound>
CCCCCCCCC [nonane] + CCCCCCCCCC[n+]1ccn(CCCB(O)O)c1.[Br-]

>  <activity coefficient>
9.92

$$$$
>  <compound>
CO [methanol] + C=CC[n+]1ccn(CCCCCCCCCCCC)c1.[Br-]

>  <activity coefficient>
0.15

$$$$
>  <compound>
CCCCCCCC [octane] + C=CCn1cc[n+](C)c1.[Br-]

>  <activity coefficient>
63

$$$$
>  <compound>
C1CCCCC1 [cyclohexane] + C=CC[n+]1ccn(CCCCCCCCCCCC)c1.[Br-]

>  <activity coefficient>
3.12

$$$$
>  <compound>
CCc1ccccc1 [ethylbenzene] + C=CC[n+]1ccn(CCCCCCCCCC)c1.[Br-]

>  <activity coefficient>
2.54

$$$$

Return reported activity coefficient; argument: CCC(C)=O [butanone] + C=CCn1cc[n+](C)c1.[Br-] 2.68

What about this compound? c1ccsc1 [thiophene] + C[n+]1ccn(CCCB(O)O)c1.[Br-] 19.4

What about this compound? Cc1cccc(C)c1 [1,3-dimethylbenzene] + CCCCCCCC[n+]1ccn(CCCB(O)O)c1.[Br-] 3.57

What about this compound? Cc1ccccc1C [1,2-dimethylbenzene] + C=CC[n+]1ccn(CCCCCCCC)c1.[Br-] 2.39

###

This listing pairs compounds with measured activity coefficient.
assay: activity coefficient (dimensionless); of the first substance listed, at infinite dilution; xn = mol fraction of the nth substance listed; details: 323.15 K; 101 kPa; Liquid; Chromatography; x1 = 0
Number, no unit, nothing else.

Use these answered entries as a reference point.
>  <compound>
CCC[N+](=O)[O-] [1-nitropropane] + CCCCCCCC[n+]1ccn(CCCB(O)O)c1.[Br-]

>  <activity coefficient>
1.58

$$$$
>  <compound>
Cc1cccc(C)c1 [1,3-dimethylbenzene] + CCCCCCCCCC[n+]1ccn(CCCB(O)O)c1.[Br-]

>  <activity coefficient>
2.11

$$$$

Now turn to the next compound.
Return reported activity coefficient; argument: CCC[N+](=O)[O-] [1-nitropropane] + CCCCCCCCCCCC[n+]1ccn(CCCB(O)O)c1.[Br-] 1.51

###

This listing pairs compounds with measured activity coefficient.
assay: activity coefficient (dimensionless); of the first substance listed, at infinite dilution; xn = mol fraction of the nth substance listed; settings: 323.15 K; 101 kPa; Liquid; Chromatography; x1 = 0
Number, no unit, nothing else.

Use these answered entries as a reference point.
>  <compound>
CCCCCCC [heptane] + C=CC[n+]1ccn(CCCCCCCC)c1.[Br-]

>  <activity coefficient>
11.4

$$$$
>  <compound>
CCCC(C)=O [pentan-2-one] + C[n+]1ccn(CCCB(O)O)c1.[Br-]

>  <activity coefficient>
24.2

$$$$
>  <compound>
Cc1ccccc1C [1,2-dimethylbenzene] + C=CCn1cc[n+](C)c1.[Br-]

>  <activity coefficient>
8.98

$$$$
>  <compound>
C#CCCCC [1-hexyne] + CCCCCCCCCC[n+]1ccn(CCCB(O)O)c1.[Br-]

>  <activity coefficient>
1.77

$$$$

Return reported activity coefficient; argument: CCC[N+](=O)[O-] [1-nitropropane] + C=CC[n+]1ccn(CCCCCCCCCC)c1.[Br-] 1.14
